Data credit: PubChem BioAssay

test summary: small-molecule binders of probe aInhba, primary screen, biochemical, small-molecule microarray, 635/667 nm fluorescence (AID 1148);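 also: score merges 667nm spot fluorescence with signal-to-noise for antibody binding to printed compounds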
setup conditions: higher = more signal
Response key: True means composite z-score >= 0.3; False means composite z-score < 0.3.

# molecule, class assignment
measured = [
    ("COc1cc2c(cc1OC)CN(C(=O)[C@@H]1[C@H]3C(=O)O[C@H](c4ccccc4)[C@H](c4ccccc4)N3[C@H](c3ccc(O)cc3)[C@@]13C(=O)Nc1ccc(C#CC4=CCCCC4)cc13)CC2", "False"),
    ("COC(=O)[C@@]1(Cc2ccc(F)cc2)[C@H]2c3cc(C(=O)N4CCCC4)n(C[C@H](O)CO)c3C[C@H]2CN1C(=O)c1ccccc1", "True"),
    ("C=CCC(OC(C)=O)[C@@H]1[C@@H](N(Cc2ccc(-c3ccccc3)cc2)C(=O)Cc2ccc(OC)cc2)c2cc(OCCCO)ccc2N1C(=O)Cc1ccc(OC)cc1 (stereo not given in full)", "False"),
    ("COc1ccc(C#Cc2ccc3c(c2)[C@]2(C(=O)N3)[C@H](c3ccccc3OCCO)N3[C@H](c4ccccc4)[C@H](c4ccccc4)OC(=O)[C@H]3[C@@H]2C(=O)NC[C@H](O)c2ccccc2)cc1", "False"),
]

Next up:
Confirm if composite z-score reported for the molecule COCCOC(=O)N1C(=O)[C@@]2(c3cc(C#CCC(C(=O)OC)C(=O)OC)ccc31)[C@H](C(=O)N1CCc3cc(OC)c(OC)cc3C1)[C@H]1C(=O)O[C@H](c3ccccc3)[C@H](c3ccccc3)N1[C@@H]2c1ccccc1OCCO is 0.3 or above. False

* * *

test summary: CREB reporter modulators under forskolin, primary screen, cell-based, PC12, CRE-LacZ reporter, forskolin-stimulated (AID 1146);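 also: PC12 cells with 6xCRE LacZ reporter stimulated by forskolin 10 µM; beta-galactosidase reporter signal reflecting CREB driven transcription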
setup conditions: luminescence, 4.5 h, higher = more signal, called active from +8 up or from −8 down
Calls of active or inactive are those of the source.
endpoint: z-score

# compound, z-score
rows = [
    ("CC(C)c1ccc(NN2C(C(O)C3CCCCC3)C=CC3C(=O)N(c4ccccc4)C(=O)C32)cc1 (centres undefined)", "0.337 (inactive)"),
    ("C=C(COC)/C(=C/C[C@@H](OC(=O)c1ccncc1)c1ccccc1OCCO)c1cnc2ccccc2c1", "1.24 (inactive)"),
    ("NCCCCCCNC(=O)[C@@H]1C[C@@H]2C(=O)NCC(=O)N2[C@@H]1c1cccc(OCCO)c1", "-0.19 (inactive)"),
]

Now turn to the next compound.
// fetch z-score given entry CC1C2C(CCCO)=CC(C3C(=O)N(C(N)=O)C(=O)C23)N1Cc1cccc(OC(F)(F)F)c1 (centres undefined) 0.693 (inactive)

* * *

Each item that follows carries a reported composite z-score.
target desc: Left-right determination factor 2 (Homo sapiens) (UniProt O00292)
Sequence (O00292 whole entry, looked up): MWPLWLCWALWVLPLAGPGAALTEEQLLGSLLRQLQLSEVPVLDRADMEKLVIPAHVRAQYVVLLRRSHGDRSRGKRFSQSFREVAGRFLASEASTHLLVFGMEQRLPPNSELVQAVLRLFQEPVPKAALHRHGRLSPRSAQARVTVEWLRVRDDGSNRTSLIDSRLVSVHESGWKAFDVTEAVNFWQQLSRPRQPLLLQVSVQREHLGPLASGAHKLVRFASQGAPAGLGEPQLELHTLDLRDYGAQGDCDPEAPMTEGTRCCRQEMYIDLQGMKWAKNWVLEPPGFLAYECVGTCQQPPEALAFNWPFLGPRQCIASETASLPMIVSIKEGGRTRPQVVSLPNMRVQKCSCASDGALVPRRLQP
test summary: LEFTY2 binders on small-molecule microarrays, primary screen, biochemical, small-molecule microarray, 635 nm fluorescence scan (AID 1110)
setup conditions: LEFTY2 binding, higher = more signal
The answer should be a number; do not append a unit.

Worked examples follow.
# compound, composite z-score
data = [
    ("COc1ccc(C(O)C2C=CC3C(=O)N(C)C(=O)C3N2Nc2ccccc2)cc1 (stereo unspecified)", -0.132),
    ("CCCCN1CC=CC23O[C@@H]4/C=C\\CCCOC(=O)C4[C@H]2C(=O)N(CCCCCCO)[C@@H]3C1=O (stereo partly specified)", -1.53),
    ("C=CCNC(=O)[C@H]1[C@@H]2C(=O)O[C@@H](c3ccccc3)[C@@H](c3ccccc3)N2[C@@H](c2ccc(OCCO)cc2)[C@]12C(=O)N(C(=O)OCCOC)c1ccc(C#CCNC(N)=O)cc12", 0.716),
    ("CC[C@@H](O[Si](C#C[Si](C(C)C)(C(C)C)C(C)C)(C(C)C)C(C)C)c1cn([C@H](C)c2ccccc2)nn1", 0.435),
    ("CCCC=C(CCC)[C@@H](NC(=O)c1ccc(C(=O)OC)cc1)c1ccc(C(=O)OC)cc1", -0.634),
]

// fetch composite z-score given entry C=C(CCCC)/C(=C/C[C@@H](OC(C)=O)c1ccc(OCCO)cc1)c1cc(C(=O)OC)ccc1OC -0.103

// fetch composite z-score given entry COc1ccc(NN2C(C(O)c3ccc(F)cc3)C=CC3C(=O)N(C4CCCCC4)C(=O)C32)cc1 (stereo unspecified) 0.14

// fetch composite z-score given entry C[N+](C)(C)CCCC[C@@H]1NC(=O)[C@H]2C[C@@H](C(=O)O)[C@@H](c3ccc(O)cc3)N2C1=O 0.436
